Every entry's value here was drawn from patent US11994512B2.

system: intracellular proteome of ENR+CD and ENR organoids; assay: LC-MS/MS TMT proteomics of ENR+CD versus ENR organoids; type: cell-based, C57BL/6 mice; conditions: up = enriched in ENR+CD, down = enriched in ENR; FDR<0.05 and log fold change cut-off
metricName: change

INSERT INTO measurements (molecule, endpointresult) VALUES
  ('Q9D1C1 (protein, UniProt Q9D1C1 1-179, looked up, full-length) MASQNRDPAAASVAAVRKGAEPCGGAARGPVGKRLQQELMILMTSGDKGISAFPESDNLFKWVGTIHGAAGTVYEDLRYKLSLEFPSGYPYNAPTVKFLTPCYHPNVDTQGNICLDILKDKWSALYDVRTILLSIQSLLGEPNIDSPLNTHAAELWKNPTAFKKYLQETYSKQVSSQDP', 'down'),
  ('Q9QXD6 (protein, UniProt Q9QXD6 1-338, looked up, full-length) MANHAPFETDISTLTRFVMEQGRKAQGTGELTQLLNSLCTAIKAISSAVRQAGIAQLYGIAGSTNVTGDQVKKLDILSNDLVINMLKSSYATCVLVSEENTNAIIIEPEKRGKYVVCFDPLDGSSNIDCLVSIGTIFGIYRKKSTDEPSEKDALQPGRDLVAAGYALYGSATMLVLAMDCGVNCFMLDPSIGEFIMVDRDVKMKKKGNIYSLNEGYAKDFDPAINEYLQRKKFPPDGSAPYGARYVGSMVADIHRTLVYGGIFLYPANKKSPSGKLRLLYECNPIAYVMEKAGGLATTGDKDILDIVPTEIHQKAPVVMGSSEDVQEFLEIYRKHKAK', 'down');
